- EXPERIMENTAL TARGET: codon optimized Vif SLQ144-146AAA MAPPIT prey (pMG2-VifoptSLQ), P12504
- EXPERIMENT NOTES: MAPPIT
- CONDITION PARAMETERS: chain shown with the change
READOUT: percent of parent

percent of parent recorded for this binder, Apobec3G-GFP MAPPIT bait (pCEL-Apobec3G-GFP), Q9HC16 R78W (protein) MKPHFRNTVERMYRDTFSYNFYNRPILSRRNTVWLCYEVKTKGPSRPPLDAKIFRGQVYSELKYHPEMRFFHWFSKWWKLHRDQEYEVTWYISWSPCTKCTRDMATFLAEDPKVTLTIFVARLYYFWDPDYQEALRSLCQKRDGPRATMKIMNYDEFQHCWSKFVYSQRELFEPWNNLPKYYILLHIMLGEILRHSMDPPTFTFNFNNEPWVRGRHETYLCYEVERMHNDTWVLLNQRRGFLCNQAPHKHGFLEGRHAELCFLDVIPFWKLDLDQDYRVTCFTSWSPCFSCAQEMAKFISKNKHVSLCIFTARIYDDQGRCQEGLRTLAEAGAKISIMTYSEFKHCWDTFVDHQGCPFQPWDGLDEHSQDLSGRLRAILQNQEN , is 16 % of WT
